target: Bcl-xL, Q07817; assay: peptide SPOT array, c-Myc-tagged receptor at 1 uM or 100 nM, anti-c-Myc-Cy3
Sequence (Q07817 1-209): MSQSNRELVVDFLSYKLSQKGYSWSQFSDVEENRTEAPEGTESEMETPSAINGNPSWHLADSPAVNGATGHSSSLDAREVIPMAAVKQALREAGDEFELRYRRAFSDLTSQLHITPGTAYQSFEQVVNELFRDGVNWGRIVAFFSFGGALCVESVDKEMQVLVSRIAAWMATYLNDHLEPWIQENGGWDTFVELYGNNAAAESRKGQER
Output schema: class label derived from SPOT signal as a fraction of Bim BH3's signal on the same receptor and array. Mapping: low: < 0.07; moderate: ≥ 0.07 and < 0.3; high: ≥ 0.3

# binder, discrete_label
data = [
    ("PEDLQDVGWFLHKLLQQILKKEKEKK [TLR5]", "moderate"),
    ("GLFSATSGVDDKYVADTFGQEVRPVS [DDX7]", "low"),
    ("RLRQLGVAKKDGVLSDNFKGKRIVLV [PPAT]", "high"),
    ("HTALENCASLDCIRADELQEALTSHC [MYO3A]", "low"),
    ("YGRLRPRARSLSKASTAINWLTKKFL", "high"),
    ("DISLSNSGFKLVNFGCDYHQYRDKFS [PION]", "high"),
    ("FVGYNSTGAELRHWLDMLANPRRPIA [SYT1]", "high"),
    ("RVSWNITGTVLASSLDDGCVRLWKAN [SEH1L]", "moderate"),
    ("RTNNYQLSDELRKNLVELTSLRQKVA [GRIPAP1]", "high"),
    ("FVGCEFLHHLLREWGEELQAVLRSSQ [GEMIN4]", "low"),
    ("PKKKMTLSEIDQWICDNFPYYREAGS [FOXJ3]", "moderate"),
    ("YGRLRPRARSDSKASTAINWLTKKFL", "high"),
    ("KYDPSKYCHNDKKIGEDFSNTIPISS [NOL8]", "moderate"),
    ("HQAEVQIARKLQCILDQFHRLHVQQH [BMF]", "moderate"),
    ("ERAISCMGQIICNLGDNLGSDLPNTL [CAND1]", "low"),
    ("IERMIHFGRELQAMSEQLRRDCGKNT [RANBP9]", "low"),
    ("AEVMRQRGINMRYLGKVLELVLRSPA [KIAA0664]", "high"),
    ("VYILRKAARRLAQVSRAAGVRVGLLS [CACNA1G]", "high"),
    ("KPRMSNTSFVIQHFADKVEYKCEGFL [MYO5C]", "low"),
    ("RDPQGWVAGNLSARLDGAAGFTLPGF [MST1R]", "low"),
    ("HRNTRNLAAFDGKASDLLRFPVKQLY [RP1L1]", "high"),
    ("GKPETCTGQDLADLGDRLRDWFQLLH [SPOCK2]", "low"),
    ("APGEEDLCAAFNVILDNVGKDWRRLA [FADD]", "low"),
    ("SHFVACMTAILNQMLDQHYSFYIETF [DOCK2]", "moderate"),
    ("MPYMEAVIHEIQRFLDVIPMSLARRV [CYP2A6]", "moderate"),
]
